Reported values of Population Fragmented Nuclei (%) for individual entries
System: Fibroblast
Assay: Multiplex assay against human fibroblast
Format: toxicity, cell-based
Settings: 12 h, 10 µM, compound concentration 10 uM, replicate 1

Past entries and their recorded results:
INSERT INTO measurements (compound, target_desc, measured_result) VALUES
  ('Cc1noc(-c2ccc(-c3ccc(CC(=O)O)cc3)cc2)c1NC(=O)O[C@H](C)c1ccccc1Cl', 'Fibroblast', '20%'),
  ('CC(C)(C)c1cc(NC(=O)Nc2ccc(-c3cn4c(n3)sc3cc(OCCN5CCOCC5)ccc34)cc2)no1', 'Fibroblast', '34%'),
  ('C[C@H](N)COC(=O)[C@@H](CCCCN)NC(=O)Cc1c(-c2ccc3ccccc3c2)[nH]c2c1ccc1ccccc12', 'Fibroblast', '13%');

Please examine the following record next.
Request the reported Population Fragmented Nuclei (%) associated with Br.CS(=O)(=O)Nc1c(O)ccc2c1CCCC2C1=NCCN1 (centres undefined)
20%

###

System: U2OS
Test: Multiplex assay against U2OS
Type: toxicity, cell-based
Details: human, 24 h, 10 µM, compound concentration 10 uM, replicate 1
MEASURED PROPERTY: Population Normal (%)
Give your result in % as a bare value.

Past entries and their recorded results:
INSERT INTO measurements (compound, measured_property, unit_of_measure, measured_result) VALUES
  ('CC(C)COc1ccc(CNC(=O)N(Cc2ccc(F)cc2)C2CCN(C)CC2)cc1', 'Population Normal (%)', '%', 89),
  ('CCCOc1ccc2[nH]cc(C3=CCNCC3)c2n1.Cl', 'Population Normal (%)', '%', 96),
  ('Cc1sc2c(c1C)C(c1ccc(Cl)cc1)=N[C@@H](CC(=O)NCCCCCCCCNC(=O)COc1cccc3c1C(=O)N(C1CCC(=O)NC1=O)C3=O)c1nnc(C)n1-2 (some centres undefined)', 'Population Normal (%)', '%', 91),
  ('O=C1[C@H](Cc2ccc(O)cc2)N2C(=O)CCN(C(=O)NCc3ccccc3)[C@H]2CN1Cc1cccc2ccccc12', 'Population Normal (%)', '%', 96),
  ('Cc1cnc(-c2cc(N3CCN(C(=O)CCS(C)(=O)=O)CC3)ncc2Cl)c(C)c1', 'Population Normal (%)', '%', 97),
  ('CN[C@@H](C)C(=O)N[C@H](C(=O)N1CCC[C@H]1C(=O)Nc1snnc1-c1ccccc1)C1CCCCC1', 'Population Normal (%)', '%', 96),
  ('CN1CCN(c2cc(-c3ccccc3)nc(N)n2)CC1', 'Population Normal (%)', '%', 98),
  ('O=C(NCCN1CCC(n2c(=O)[nH]c3cc(Cl)ccc32)CC1)c1ccc(F)cc1 [HALOPEMIDE]', 'Population Normal (%)', '%', 97);

Please examine the following record next.
Request the reported Population Normal (%) associated with CCc1cc2cc(NS(=O)(=O)c3ccc(C#N)cc3)ccc2n(CC)c1=O
96

###

Reported values of Total Cell Count for individual entries
Tested on: Fibroblast
Experiment: Multiplex assay against human fibroblast
Assay type: toxicity, cell-based
Conditions: 48 h, 1 µM, compound concentration 1 uM, replicate 2

Please provide the recorded Total Cell Count for COC[C@@H](c1ccc(C(F)(F)F)cc1)N1CCN(C2(C)CCN(C(=O)c3c(C)ncnc3C)CC2)C[C@@H]1C.O=C(O)/C=C\C(=O)O [VICRIVIROC MALEATE] , tested on Fibroblast.
180

Please provide the recorded Total Cell Count for Cl.NCCc1ccc(O)c(O)c1 [DOPAMINE HYDROCHLORIDE] , tested on Fibroblast.
159

###

Reported values of Population Mitotic Cells (%) for individual entries
Tested on: HEK-293T
Assay: Multiplex assay against HEK293T
Format: toxicity, cell-based
Conditions: human, 48 h, 1 µM, compound concentration 1 uM, replicate 1
Give your result in % as a bare value.

Past entries and their recorded results:
INSERT INTO results (entry_smiles, target_desc, measured_property, measured_result) VALUES
  ('Cc1cccc(NC(=O)CN2CCC(c3ccccn3)CC2)c1.Cl.Cl', 'HEK-293T', 'Population Mitotic Cells (%)', 69),
  ('CN(C)C(=O)Cn1cc(-c2ccc(-c3cncc4ccccc34)cc2)cn1', 'HEK-293T', 'Population Mitotic Cells (%)', 64),
  ('CC(C)(C)c1cc(NC(=O)Nc2ccc(-c3cn4c(n3)sc3cc(OCCN5CCOCC5)ccc34)cc2)no1', 'HEK-293T', 'Population Mitotic Cells (%)', 78),
  ('COc1cccc2c1c(NS(=O)(=O)c1ccc(Cl)s1)nn2Cc1cccc(CNC(=O)C(C)(C)O)c1', 'HEK-293T', 'Population Mitotic Cells (%)', 83);

Request the reported Population Mitotic Cells (%) associated with CCCCC(=O)N(Cc1ccc(-c2ccccc2-c2nnn[nH]2)cc1)[C@H](C(=O)O)C(C)C
81

###

Tested on: U2OS
Test: Multiplex assay against U2OS
Format: toxicity, cell-based
Details: human, 12 h, 10 µM, compound concentration 10 uM, replicate 1
Mark true for Population Membrane Permeable-Phenotype (%) under 6%, false if at or over.

Dear reviewer, please state whether COc1ccccc1N1CCN(C[C@@H](C(=O)NC(C)(C)C)c2ccccc2)CC1.Cl.Cl has Population Membrane Permeable-Phenotype (%) strictly beneath 6%.
false

###

System: HEK-293T
Test: Multiplex assay against HEK293T
Assay type: toxicity, cell-based
Details: human, 12 h, 10 µM, compound concentration 10 uM, replicate 1
Decision: Population Apoptotic (%) compared against 40%; not below it gives met, below it gives not met.

Study these solved cases before continuing.
INSERT INTO assay_data (compound, target_desc, discrete_label) VALUES
  ('COC[C@@H](c1ccc(C(F)(F)F)cc1)N1CCN(C2(C)CCN(C(=O)c3c(C)ncnc3C)CC2)C[C@@H]1C.O=C(O)/C=C\C(=O)O [VICRIVIROC MALEATE]', 'HEK-293T', 'met'),
  ('Cl.N=C(N)NC(=O)Cc1c(Cl)cccc1Cl [GUANFACINE HYDROCHLORIDE]', 'HEK-293T', 'met'),
  ('CC(=O)Nc1cccc2c1c(Sc1ccc(Cl)cc1)c(C)n2CC(=O)O', 'HEK-293T', 'not met'),
  ('CC(/C=C1\SC(=S)N(CCCC(=O)Nc2ccc(C(=O)O)c(O)c2)C1=O)=C\c1ccccc1', 'HEK-293T', 'met');

# next compound below
Textbook exercise: given the entry COc1cccc2c1c(NS(=O)(=O)c1ccc(Cl)s1)nn2Cc1cccc(CNC(=O)C(C)(C)O)c1 , state whether its Population Apoptotic (%) is greater than or equal to 40%.
met

###

Reported values of Population Healthy Nuclei (%) for individual entries
Tested on: HEK-293T
Test: Multiplex assay against HEK293T
Type: toxicity, cell-based
Details: human, 12 h, 10 µM, compound concentration 10 uM, replicate 2
Give your result in % as a bare value.

INSERT INTO measurements (compound, measured_property, unit_of_measure, measured_result) VALUES
  ('NCCc1cn(S(=O)(=O)c2c(Cl)nc3sccn23)c2ccccc12.O=C(O)C(=O)O', 'Population Healthy Nuclei (%)', '%', 67);

Request the reported Population Healthy Nuclei (%) associated with CN1CCN(c2cc(-c3ccccc3)nc(N)n2)CC1
81

Request the reported Population Healthy Nuclei (%) associated with Cc1onc(-c2ccccc2Cl)c1C(=O)N(C)c1ccc(Cl)cc1
80

Request the reported Population Healthy Nuclei (%) associated with COc1cccc2c1c(NS(=O)(=O)c1ccc(Cl)s1)nn2Cc1cccc(CNC(=O)C(C)(C)O)c1
78

###

Reported values of Population Mitotic Cells (%) for individual entries
Tested on: Fibroblast
Test: Multiplex assay against human fibroblast
Assay type: toxicity, cell-based
Conditions: 12 h, 10 µM, compound concentration 10 uM, replicate 1
Give your result in % as a bare value.

Past entries and their recorded results:
INSERT INTO assay_data (compound, target_desc, unit_of_measure, measured_result) VALUES
  ('CC(C)c1noc(N2CCC(COc3ccc(-c4ccc(S(C)(=O)=O)cc4)nc3)CC2)n1 [GSK-1292263]', 'Fibroblast', '%', 60),
  ('Cc1cnc(-c2cc(N3CCN(C(=O)CCS(C)(=O)=O)CC3)ncc2Cl)c(C)c1', 'Fibroblast', '%', 60),
  ('COC[C@@H](c1ccc(C(F)(F)F)cc1)N1CCN(C2(C)CCN(C(=O)c3c(C)ncnc3C)CC2)C[C@@H]1C.O=C(O)/C=C\C(=O)O [VICRIVIROC MALEATE]', 'Fibroblast', '%', 41);

Please examine the following record next.
Request the reported Population Mitotic Cells (%) associated with COc1cccc2c1c(NS(=O)(=O)c1ccc(Cl)s1)nn2Cc1cccc(CNC(=O)C(C)(C)O)c1
57

###

Reported values of Population Mitochondria Different-Phenotype (%) for individual entries
System: U2OS
Assay: Multiplex assay against U2OS
Type: toxicity, cell-based
Conditions: human, 12 h, 1 µM, compound concentration 1 uM, replicate 2
State the value with its unit after it.

Past entries and their recorded results:
INSERT INTO results (entry_smiles, target_desc, measured_result) VALUES
  ('CCCOc1ccc2[nH]cc(C3=CCNCC3)c2n1.Cl', 'U2OS', '7%'),
  ('NCCc1cn(S(=O)(=O)c2c(Cl)nc3sccn23)c2ccccc12.O=C(O)C(=O)O', 'U2OS', '8%'),
  ('CC(C)(C)c1cc(NC(=O)Nc2ccc(-c3cn4c(n3)sc3cc(OCCN5CCOCC5)ccc34)cc2)no1', 'U2OS', '6%');

Request the reported Population Mitochondria Different-Phenotype (%) associated with C[C@H](N)COC(=O)[C@@H](CCCCN)NC(=O)Cc1c(-c2ccc3ccccc3c2)[nH]c2c1ccc1ccccc12
2%

Request the reported Population Mitochondria Different-Phenotype (%) associated with Cc1cnc(-c2cc(N3CCN(C(=O)CCS(C)(=O)=O)CC3)ncc2Cl)c(C)c1
7%

Request the reported Population Mitochondria Different-Phenotype (%) associated with CC(=O)Nc1cccc2c1c(Sc1ccc(Cl)cc1)c(C)n2CC(=O)O
1%

Request the reported Population Mitochondria Different-Phenotype (%) associated with COc1ccccc1N1CCN(C[C@@H](C(=O)NC(C)(C)C)c2ccccc2)CC1.Cl.Cl
2%

Request the reported Population Mitochondria Different-Phenotype (%) associated with CN[C@@H](C)C(=O)N[C@H](C(=O)N1CCC[C@H]1C(=O)Nc1snnc1-c1ccccc1)C1CCCCC1
38%

Request the reported Population Mitochondria Different-Phenotype (%) associated with Cc1onc(-c2ccccc2Cl)c1C(=O)N(C)c1ccc(Cl)cc1
1%
